assay: Tissue distribution test (plasma, liver, kidney, lung); settings: ICR, mouse, in vivo, iv, 5 mg/kg, Kidney Kp, kidney/plasma concentration ratio, ICR mice, 0.5 hour

MOLECULE: CCCCCCCCCCNCCN[C@@]1(C)C[C@H](O[C@H]2[C@H](Oc3c4cc5cc3Oc3ccc(cc3Cl)[C@@H](O)[C@@H]3NC(=O)[C@H](NC(=O)[C@@H]5NC(=O)[C@H](CC(N)=O)NC(=O)C(NC(=O)[C@@H](CC(C)C)NC)[C@H](O)c5ccc(c(Cl)c5)O4)c4ccc(O)c(c4)-c4c(cc(O)c(CNCP(=O)(O)O)c4O)[C@@H](C(=O)O)NC3=O)O[C@H](CO)[C@@H](O)[C@@H]2O)O[C@@H](C)[C@H]1O (stereo partly shown)
Kp at 0.5 h: 1.05

meta.source: patent US20230321251A1
